The values you see were collected from ChEMBL document CHEMBL4359879.

Tested on: CCRF-CEM
Test: Antiproliferative activity against human CEM cells incubated for 48 hrs by MTT assay
Format: functional, cell-based
reported-endpoint: EC50 (µM)
Write the answer as a number in µM, unit excluded.

API: value(readout=EC50, system=CCRF-CEM) for record COC(=O)c1[nH]c2cc(OC)ccc2c1-c1ccccc1OC
1.9

Let us now turn to COC(=O)c1[nH]c2ccccc2c1-c1ccccc1
35.8

Then what about the compound COC(=O)c1[nH]c2cc(O)ccc2c1-c1ccc(C(F)(F)F)cc1 ?
9.9

* * *

Tested on: CCRF-CEM
Assay: Antiproliferative activity against human CEM cells incubated for 48 hrs by MTT assay
Assay type: functional, cell-based
reported-endpoint: EC50

What measured EC50 goes with COC(=O)c1[nH]c2ccccc2c1-c1ccc(F)cc1 ?
> 100 µM

Param item: COC(=O)c1[nH]c2cc(C(F)(F)F)ccc2c1-c1ccc(OC)cc1
> 100 µM

Another: COC(=O)c1[nH]c2cc(OC)ccc2c1Cc1ccccc1
8.7 µM

Do the same for COC(=O)c1[nH]c2cc(OC)ccc2c1C1CCCCC1 please
80.2 µM

// query: COC(=O)c1[nH]c2ccc(OC)cc2c1-c1ccc(C(F)(F)F)cc1
> 100 µM

Similarly, COC(=O)c1[nH]c2cc(OC)ccc2c1CC(C)C ?
16.6 µM

What do you have for COC(=O)c1[nH]c2cc(OC)ccc2c1C(C)C ?
> 100 µM

Next entry: COC(=O)c1[nH]c2cc(OC)ccc2c1C(=O)OC
> 100 µM

Note, next up: COC(=O)Cc1c(C(=O)OC)[nH]c2cc(OC)ccc12
> 100 µM

Try CCc1c(C(=O)OC)[nH]c2cc(OC)ccc12 next.
> 100 µM

// query: COC(=O)c1[nH]c2cc(OC)ccc2c1-c1ccc(C(F)(F)F)cc1
0.2 µM

Please give the result for COC(=O)c1[nH]c2cc(OC)ccc2c1-c1ccc(Cl)c(Cl)c1 too.
0.58 µM

Please do the same for COc1ccc2c(-c3ccc(C(F)(F)F)cc3)c(C(=O)N[C@@H](Cc3ccccc3)C(=O)O)[nH]c2c1 as well.
52 µM

* * *

System: RS4-11
Experiment: Antiproliferative activity against human RS4:11 cells incubated for 48 hrs by MTT assay
Assay type: functional, cell-based
Conditions: RS4-11, 48 h
reported-endpoint: pEC50
On this scale, pEC50 is minus log10 of a concentration expressed in M (mol/L).

Reported pEC50 for COC(=O)c1[nH]c2ccccc2c1-c1ccccc1 : what is it?
4.02

And COC(=O)c1[nH]c2cc(OC)ccc2c1C(C)C ?
4.09

Similarly, COC(=O)c1[nH]c2cc(OC)ccc2c1Cc1ccccc1 ?
4.21

Subsequent entry: COC(=O)c1[nH]c2cc(OC)ccc2c1-c1ccccc1OC
4.98

* * *

Test system: CCRF-CEM
Assay: Antiproliferative activity against human CEM cells incubated for 48 hrs by MTT assay
Assay type: functional, cell-based
So I've got a bunch of compounds here, and I need their EC50 values.

Can you share its EC50? I mean this compound: COC(=O)c1[nH]c2cc(OC)ccc2c1-c1ccc(Br)cc1
0.33 µM

Now the same for COC(=O)c1[nH]c2cc(C(F)(F)F)ccc2c1-c1ccccc1
> 100 µM

Another compound to check: COc1ccc2c(-c3ccc(C(F)(F)F)cc3)c(C(=O)N3CCOCC3)[nH]c2c1
29.7 µM

Now this one: COC(=O)c1c(-c2ccc(C(F)(F)F)cc2)c2ccc(OC)cc2n1O
0.39 µM

Cool, now COC(=O)c1[nH]c2cc(OC)ccc2c1-c1ccc(F)cc1
10 µM

What about this compound? COC(=O)c1[nH]c2ccccc2c1-c1ccc(C(F)(F)F)cc1
> 100 µM

Check COC(=O)c1[nH]c2ccccc2c1-c1ccc(OC)cc1 too.
> 100 µM

Lookup COc1ccc2c(-c3ccc(C(F)(F)F)cc3)c(C(=O)O)[nH]c2c1
19.8 µM

Repeat with COC(=O)c1[nH]c2cc(OC)ccc2c1C
> 100 µM

Also COC(=O)c1c(-c2ccc(C(F)(F)F)cc2)c2ccc(OC)cc2n1C ?
> 100 µM

And for COC(=O)c1c(-c2ccc(C(F)(F)F)cc2)c2ccc(OC)cc2n1Cc1ccccc1 ?
> 100 µM

* * *

System: RS4-11
Test: Antiproliferative activity against human RS4:11 cells incubated for 48 hrs by MTT assay
Format: functional, cell-based
Conditions: RS4-11, 48 h
Could you please report measured EC50 for the items listed next?
Report the value in µM with no unit label.

Any idea what its EC50 is? The molecule is COC(=O)c1[nH]c2cc(OC)ccc2c1-c1ccc(F)cc1
85.6

What do you get for COC(=O)c1c(-c2ccc(C(F)(F)F)cc2)c2ccc(OC)cc2n1O ?
0.3

Again, but for COc1ccc2c(-c3ccc(C(F)(F)F)cc3)c(C(=O)N[C@@H](Cc3ccccc3)C(=O)O)[nH]c2c1
43.1

Next record, please: COc1ccc2c(-c3ccc(C(F)(F)F)cc3)c(C(=O)N3CCOCC3)[nH]c2c1
47.6

* * *

System: CCRF-CEM
Experiment: Antiproliferative activity against human CEM cells incubated for 48 hrs by MTT assay
Format: functional, cell-based
Kindly supply the reported EC50 values for the records listed here.

If you can, please state the reported EC50 value of COc1ccc2c(-c3ccc(C(F)(F)F)cc3)c(C(=O)OC(C)(C)C)[nH]c2c1 .
> 100 µM

Same again, this time with CCOC(=O)c1[nH]c2cc(OC)ccc2c1-c1ccc(C(F)(F)F)cc1
> 100 µM

Moving on to the next compound: COC(=O)c1[nH]c2cc(C(F)(F)F)ccc2c1-c1ccc(C(F)(F)F)cc1
> 100 µM
